Target: T1, UNK ZnF1-6 (called full-length) (human, UniProt Q9C0B0 30-357)
T1 sequence: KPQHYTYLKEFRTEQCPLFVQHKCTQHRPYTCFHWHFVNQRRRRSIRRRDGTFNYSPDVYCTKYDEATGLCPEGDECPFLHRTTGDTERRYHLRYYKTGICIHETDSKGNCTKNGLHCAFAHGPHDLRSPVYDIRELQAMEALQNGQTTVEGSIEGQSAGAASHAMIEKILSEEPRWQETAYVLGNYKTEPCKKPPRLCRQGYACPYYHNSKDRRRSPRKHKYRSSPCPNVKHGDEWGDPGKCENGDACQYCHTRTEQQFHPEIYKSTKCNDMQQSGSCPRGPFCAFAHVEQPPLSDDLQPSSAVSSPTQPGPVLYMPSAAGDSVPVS
Assay: nsRBNS (natural sequence RNA bind-n-seq); RBNS binding buffer (assumed for nsRBNS): 25 mM Tris pH 7.5, 150 mM KCl, 3 mM MgCl2, 0.01% Triton X-100, 500 ug/ml BSA, 20 U/ml SUPERase-In, 4 C; UNK is unkempt and MSI1 is Musashi-1; names of the RNAs are library labels; protein concentration not given here; high values mean tight binding
Over roughly 5,800 sequences, “enrichment r” has its median near 0.68; the highest 2% begin near 11. The sample as a whole holds a higher share of the highest values than the screen did.
property.measured: binding signal (enrichment R)
One number for each entry, in enrichment R.

Consider the reported binding signal for these binders:
1) ENSG00000070961:be:win_4601|3pUTR|ENSG00000070961|bound_else_gene|NA|bound_elsewhere_windowed (ssRNA) RNA: GGGAGUUCUACAGUCCGACGAUCUCAGACUAUCAAACUACAAGAGAACCUUAGUCUUUUUUGUUUUUGUCUAAACAUGUUAGUUUAGUGAUGUCUUGGUGAACUGUGAGUGAACUGUAUUGAUUUUUCUAAUCUUUAGAGACCCAACAGAGGAUUGAGCAUCA = 2.66
2) chr6:149410404:149410522:+|3pUTR|ENSG00000055208|unk|total|mutant (ssRNA) RNA: GGGAGUUCUACAGUCCGACGAUCUUAUAUUUCUAUAUGUACCGUGUAACCGCCUUUUGUUAACUAAUUUUCUUUUUUCCUUUCCGUAAUUAAGCACGAUCAUGUCCCUUUUUAAGCCUUACCUGAGAGGAACAAUGCCUUAAACAACAGAGGAUUGAGCAUCA = 4.24

Task item: What measured binding signal goes with chr6:149410404:149410522:+|3pUTR|ENSG00000055208|unk|FALSE|bound_elsewhere (ssRNA) RNA: GGGAGUUCUACAGUCCGACGAUCUUAUAUUUCUAUAUGUAUAGUGUAAUAGCCUUUUGUUAACUAAUUUUCUUUUUUCCUUUUAGUAAUUAAGCACGAUCAUGUCCCUUUUUAAGCCUUACCUGAGAGGAACAAUGCCUUAAACAACAGAGGAUUGAGCAUCA ?
Reply: 66

Value source: paper PMC12136788
